MEASUREMENT TARGET: KPC-2 β-lactamase (Klebsiella pneumoniae, UniProt Q9F663)
Sequence (Q9F663 25-293, looked up): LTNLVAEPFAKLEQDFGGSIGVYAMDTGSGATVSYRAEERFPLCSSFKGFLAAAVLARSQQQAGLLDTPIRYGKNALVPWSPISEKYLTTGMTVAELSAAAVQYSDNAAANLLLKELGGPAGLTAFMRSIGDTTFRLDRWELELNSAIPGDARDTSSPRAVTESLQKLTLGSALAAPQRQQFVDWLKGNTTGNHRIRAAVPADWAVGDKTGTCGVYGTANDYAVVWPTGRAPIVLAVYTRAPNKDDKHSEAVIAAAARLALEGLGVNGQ
METHOD SUMMARY: Competition kinetics of KPC-2 inhibition with nitrocefin as substrate
pKi: −log10 of the molar value.

{"COMPOUND": "O=C(O)C[C@@H]1CC[C@H](NC(=O)Cc2cccs2)B(O)O1 [vaborbactam]", "MEASUREMENT TARGET": "KPC-2 β-lactamase (Klebsiella pneumoniae, UniProt Q9F663)", "pKi": 7.70}

Where do these numbers come from? They come from paper PMC8256004.
